Test system: SR leukemia
Assay: NCI tumour cell line growth inhibition, 48 h
*1 amine or outer side, *2 acyl side, *3 side chain or, on linkers, in order; H or OH if unused. Where a SMILES comes first, the peptide text is derived from it. Bridges are numbered along the chain shown (N, C = ends). Roman numbers before positions name the chains, in order. [ ]: non-standard residue; d: D form. Actinocin(9to1) = Cc1c2oc3c(C)ccc(C(=O)[*:1])c3nc-2c(C(=O)[*:2])c(N)c1=O; Hyp = O=C(O)[CH]1C[CH](O)CN1; NMeV = CN[CH](C(=O)O)C(C)C; Sar = CNCC(=O)O
So I've got a bunch of compounds here, and I need their TGI values.

Exercise: What TGI value was documented for this compound, CCOC(=O)C(=CNC(=S)N=Nc1c(O)[nH]c2ccccc12)C(=O)OCC ?
Key: > 100 µM

Exercise: Now this one: COc1cc(C(C)c2cc3c(cc2OCCNC(=O)COc2cc4c(cc2C(C)c2cc(OC)c(OC)c(OC)c2)OCO4)OCO3)cc(OC)c1OC (configuration not stated)
Key: > 100 µM

Exercise: Next entry: O=C(OC1CN2CCC1CC2)N(c1ccccc1)c1ccccc1 (configuration not stated)
Key: > 100 µM

Exercise: Follow-up item: NCCNC(=O)c1cccc2cc3ccccc3nc12
Key: 53.8 µM

Exercise: Also Nc1ccc2ccc(N3CCNCC3)nc2n1 , if possible.
Key: > 100 µM

Exercise: Also, CN(C)CCOc1ccc(-c2c(Oc3ccccc3)c(=O)oc3ccccc23)cc1 please.
Key: 19.4 µM

Exercise: And Cc1[nH]c(N)nc(=S)c1CCC(=O)O ?
Key: > 100 µM

Exercise: // next record N/N=C(\c1nc2ccc(Cl)cc2[nH]c1=O)C(O)c1ccc(Cl)c(Cl)c1 (configuration not stated)
Key: > 100 µM

Exercise: // next record CCN(CC)CC1CN=C(N)O1 (configuration not stated)
Key: > 100 µM

Exercise: Please give the result for CCOC(=O)[C@@]1(C)CC(O)C(=O)N1C (some centres not stated) too.
Key: > 100 µM

Exercise: Same question, CC(=O)/C=C/C1=C(c2csc3ccccc23)c2ccccc2CC1 this time
Key: 64.6 µM

Exercise: And what about the compound CCCCc1ccc(Nc2nc(Cl)c3c(ncn3C3CC(Oc4ccc(C)cc4)C(COc4ccc(C)cc4)O3)n2)cc1 (configuration not stated) ?
Key: > 100 µM

Exercise: Then O=C(CN1CCCCC1)Nc1ccc2c(c1)C1Oc3ccccc3CC1CO2 (configuration not stated) ?
Key: > 100 µM

Exercise: Then this compound: Cc1c2oc3c(C)ccc(C(=O)NC4C(=O)NC(C(C)C)C(=O)N5CC(O)CC5C(=O)N(C)CC(=O)N(C)C(C(C)C)C(=O)OC4C)c3nc-2c(C(=O)NC2C(=O)NC(C(C)C)C(=O)N3CC(O)CC3C(=O)N(C)CC(=O)N(C)C(C(C)C)C(=O)OC2C)c(N)c1=O (configuration not stated) (I: TV[Hyp][Sar][NMeV] / II: TV[Hyp][Sar][NMeV]; ester I:1-I:C, II:1-II:C; linker I:N-II:N via Actinocin(9to1); configuration not given here)
Key: > 1 µM

Exercise: For Nc1nc2cc(CC[C@H]3C[C@@H](n4ccc5c(N)ncnc54)[C@H](O)[C@@H]3O)ccc2cc1Br then?
Key: > 100 µM

Exercise: Same question for Cn1nc(C(F)(F)F)c(-c2cc(C(F)(F)F)cc(C(F)(F)F)c2)c1-c1ccc(OCc2ccc(Cl)cc2)cc1O please.
Key: 7.51 µM

Exercise: Thanks! And COc1ccc(NC(=O)c2sc3nc(C)c(C(=O)/C=C/c4cccc(OC)c4)cc3c2N)cc1 ?
Key: 5.92 µM

Exercise: Request: CCOC1NC(=O)Oc2cc3ccccc3cc21 (configuration not stated)
Key: > 100 µM

Exercise: Query O=C(c1ccccc1)c1c(C(F)(F)F)n([O-])c2cc(C(F)(F)F)ccc2[n+]1=O next
Key: 3.53 µM

Exercise: Same lookup for CC1(C)OC(=O)C(C#N)=C1C[n+]1ccccc1 , please.
Key: > 10 µM

Exercise: Next up: c1ccc(SC23C4C5C6C4C2C6C53)nc1 (configuration not stated)
Key: > 35 µM

Exercise: Repeat for the following compound: CC([C@H]1CC=C2C3CCC4=C[C@@H](N(C)C)CC[C@]4(C)C3CC[C@@]21C)N(C)C (some centres not stated)
Key: 4.19 µM

Exercise: Let us now turn to CC(C)(C)NC(=O)/C(=C\Sc1ccccc1)c1ccccc1
Key: > 100 µM

Exercise: And the next one, CC1=NOC(=O)/C1=C/c1ccc([N+](=O)[O-])cc1 ?
Key: > 100 µM

Exercise: And for NCCCNOCCCN ?
Key: > 100 µM

Exercise: What about CN(O)C(=O)CCCC(=O)NCC(C)(C)CNC(=O)CCCC(=O)N(C)O ?
Key: > 100 µM

Exercise: What about this compound? O=C(c1ccco1)c1c(C(F)(F)F)n([O-])c2cc(C(F)(F)F)ccc2[n+]1=O
Key: 0.265 µM

Exercise: Next entry: N/C(=N\Nc1ccc(Cl)cc1)c1cnccn1
Key: > 100 µM

Exercise: Try this compound next: C=CCOC(=O)N1c2ccc(O)cc2[C@@]23O[C@@]24[C@@H]1C#C/C=C\C#C[C@]3(O)C(OC)(OC)C[C@@H]4C
Key: 62.2 µM

Exercise: Subsequent entry: CCOC(=O)C(Cc1ccccc1)NC(=O)c1[nH]cnc1/N=N/N(C)C (configuration not stated)
Key: > 100 µM

Exercise: Could you do the same for O=c1c2cnccc2cc2c3ccccc3ccn12 , please?
Key: > 100 µM

Exercise: One more compound: Cc1cc(C)c(C(=O)O)c(SSc2cc(C)cc(C)c2C(=O)O)c1
Key: > 100 µM

---

System: OVCAR-4 ovarian
Assay: NCI tumour cell line growth inhibition, 48 h
measure: TGI

Exercise: TGI lookup needed for Nc1ccc2ccc(N3CCNCC3)nc2n1 , thanks.
Key: > 100 µM

Exercise: Subsequent entry: N#CC(C#N)=Cc1ccc(CP(=O)(O)O)cc1
Key: > 100 µM

Exercise: Repeat with C/C=C(\C)C(=O)O[C@@H]1CC(C)(C)CC2C3=CCC4[C@]56CC[C@](O)(OC5)C(C)(C)C6CC[C@@]4(C)C3(C)CC[C@]21C(=O)O (stereo partly drawn)
Key: > 100 µM

Exercise: How about this molecule: O=C(c1cccnc1)N1N=C(c2ccccc2)CC1(O)c1cc(F)c(Cl)cc1Cl (stereo not drawn)
Key: > 100 µM

Exercise: Entry NCCCNOCCCN please
Key: > 100 µM

Exercise: Similarly, Nc1ccc(COC(O)CN2CCCCC2)cc1[N+](=O)[O-] (stereo not drawn) ?
Key: > 100 µM

Exercise: What about Cc1[nH]c(N)nc(=S)c1CCC(=O)O ?
Key: > 100 µM

Exercise: Also, CCN(CC)CC1CN=C(N)O1 (stereo not drawn) please.
Key: > 100 µM

Exercise: And then COc1cc(OC)c(OC)cc1/C=C/c1cnnc2ccccc12 , what is it?
Key: > 10 µM

Exercise: Another molecule to look at: CC(C(=O)c1ccncc1)c1ccccn1 (stereo not drawn)
Key: > 100 µM

Exercise: And what about the molecule CCOc1ccc(C(C)c2cc3c(cc2OC)OCO3)cc1 (stereo not drawn) ?
Key: > 100 µM

Exercise: Now the same for N/C(=N\Nc1ccc(Cl)cc1)c1cnccn1
Key: > 100 µM

Exercise: Follow-up item: CCOC(=O)C(Cc1ccccc1)NC(=O)c1[nH]cnc1/N=N/N(C)C (stereo not drawn)
Key: > 100 µM

Exercise: How about this molecule: O=C(O)/C(=C\c1ccc(O)cc1)c1cccc2ccccc12
Key: > 100 µM

Exercise: For CC(C)C(=O)c1c(C(F)(F)F)n([O-])c2cc(F)c(F)cc2[n+]1=O then?
Key: 2.89 µM

Exercise: How about this molecule: C=CC(=O)N1C/C(=C\c2ccc([N+](=O)[O-])cc2)C(=O)/C(=C/c2ccc([N+](=O)[O-])cc2)C1
Key: 1.33 µM

Exercise: Another molecule to look at: Cc1cc2n[n+]3[n-]cc(-c4ccccc4)n3c2cc1[N+](=O)[O-]
Key: > 100 µM

Exercise: And what about the molecule C=C1C(=O)O[C@H]2[C@H]1CC/C(COC(=O)CCCc1c[nH]c3ccccc13)=C\CC[C@@]1(C)O[C@@H]21 ?
Key: 3.28 µM

Exercise: Param item: CC(C)=CC(=O)N[C@H]1CC[C@]2(C)C3CC[C@]4(C)C(C(C)N(C)C)=CCC4C3CCC2[C@H]1O (stereo partly drawn)
Key: 20.8 µM

Exercise: And for Cn1c(-c2ccccc2)c(/C=C/C2=[N+](C)c3ccccc3C2(C)C)c2ccccc21 ?
Key: 14.4 µM

Exercise: Field entry: COC(=O)C(Cc1ccc(N(C)C)cc1)(NC(=O)c1ccccc1)P(=O)(OC)OC (stereo not drawn)
Key: > 100 µM

Exercise: What about COC(=O)c1c2c(cc3c1CC1(Cc4cc5c(c(C(C)=O)c4C1)CCCC5)C3)CCCC2 (stereo not drawn) ?
Key: > 100 µM

Exercise: Now try Cc1cccc(C)c1N1C(=O)C(=O)C(c2nc3ccccc3s2)/C(=N/NC(=O)c2ccccc2O)C1=O (stereo not drawn) .
Key: > 100 µM

Exercise: Can you check O=C1C=Cc2c1ccc1ccccc21 next?
Key: > 100 µM

Exercise: How about this molecule: CC(=O)NC(CSC1=C2NC(=O)\C=C/C=C/C=C\C(C)C(O)CC(=O)/C(C)=C\CC(O)/C=C/C(C)C(O)C(C)C=C(C)C(=O)c3c(O)c(C)cc(c3C1=O)C2=O)C(=O)O (stereo not drawn)
Key: > 100 µM

Exercise: Next up: COc1ccc(NC(C(N)=O)c2cc3cc(Br)ccc3nc2Cl)cc1 (stereo not drawn)
Key: > 100 µM

Exercise: Now this one: Nc1nc(SCc2ccccc2Cl)cc(C(=O)O)n1
Key: > 100 µM

Exercise: Follow-up item: Cc1cc(C)c(C(=O)O)c(SSc2cc(C)cc(C)c2C(=O)O)c1
Key: > 100 µM
